Attribution: ChEMBL document CHEMBL1157539

- System: Plasmodium falciparum
- assayExplanation: GSK_TCMDC: Inhibition of Plasmodium falciparum 3D7 in whole erythrocytes, using parasite LDH activity as an index of growth.
- Format: functional, organism-based
- details: Plasmodium falciparum, 3D7
# key: entry, value: XC50
Quick note: give the figure in nM, leave out the unit.

Below, each entry is followed by its recorded XC50 result.
O=S(=O)(Nc1cc2c(cc1O)CCN(C1CCC1)CC2)c1ccc(-c2ccc(F)cc2)cc1	417
O=C(Cc1ccc(-c2ccccc2)cc1)N[C@H]1CCN(Cc2ccc(OCCCN3CCCCC3)cc2)C1	772
C[C@H]1CN(Cc2cccc(-c3cc(CNC(=O)c4cccc(CC5CCN(C)CC5)c4)ccc3F)c2)CCN1C	1090
COc1ccc(CNCc2cccc(-c3cccc(-c4nc5cccc(C)c5[nH]4)c3)c2)cc1	134

Let us move to another entry and its XC50.
Data request: So what's the measured XC50 for this one? CCCc1cc(C)ccc1OCCCON1C(N)=NC(N)=NC1(C)C
Data returned: 3.2
